target: thromboxane synthetase (Homo sapiens)
Construct: Indomethacin-pretreated human platelet microsomes; from tissue; host or cells: human platelet microsomes
assay comment: Thromboxane A2 (TxA2) synthetase in vitro enzyme assay
Format: biochemical
test parameters: prostacyclin synthetase / thromboxane synthetase 50% inhibition concentrations
readout: Ratio of (3) to (1)

# count of solved cases: 3
[
  {
    "compound": "Cc1[nH]c2ccccc2c1Cn1ccnc1 [II, 3-(imidazol-1-ylmethyl)-2-methylindole]",
    "Ratio of (3) to (1)": "2,500"
  },
  {
    "compound": "CN(C)c1ccc2[nH]cc(Cn3ccnc3)c2c1 [XXIII]",
    "Ratio of (3) to (1)": "> 1,500"
  },
  {
    "compound": "c1ccc2c(Cn3ccnc3)c(C34CC5CC(CC(C5)C3)C4)[nH]c2c1 [XIV]",
    "Ratio of (3) to (1)": 400
  }
]

Exam item: For Oc1ccc2[nH]cc(Cn3ccnc3)c2c1 [Example XLVII, 5-hydroxy-3-(imidazol-1-ylmethyl)-indole] , what is its reported Ratio of (3) to (1)?
Marked response: 3,500

Exam item: Follow-up item: c1ccc(COc2ccc3[nH]cc(Cn4ccnc4)c3c2)cc1 [Example XXV]
Marked response: 140

Exam item: Follow-up item: c1ccc2c(c1)c(Cn1ccnc1)cn2CC1CC1 [XXXVI]
Marked response: 9,000

Exam item: Follow-up item: CN(C)CCn1cc(Cn2ccnc2)c2ccccc21 [XXXVIII]
Marked response: > 3,800

Exam item: Follow-up item: CC(=O)n1cc(Cn2ccnc2)c2ccccc21 [Example XLVI, 1-acetyl-3-(imidazol-1-ylmethyl)indole]
Marked response: 57,000

Exam item: Follow-up item: Cn1cc(Cn2ccnc2)c2ccccc21 [XXVII, 3-(imidazol-1-ylmethyl)-1-methylindole]
Marked response: > 50,000

---

Quick record of IC50 values for prostacyclin synthetase (Sus scrofa).
readout: IC50 (µM)

[
  {
    "molecule": "Cc1ccc(-c2[nH]c3ccccc3c2Cn2ccnc2)cc1 [XVII]",
    "measurement unit": "µM",
    "observed measurement": 2
  }
]

a. Oc1ccc(-c2[nH]c3ccccc3c2Cn2ccnc2)cc1 [L]
b. Cc1ccc2[nH]cc(Cn3ccnc3)c2c1 [XI, 3-(imidazol-1-ylmethyl)-5-methylindole]
Exam item: Min IC50? a | b Record your answer as the label of the chosen record.
Marked response: a
(a: 3 µM, b: 35 µM)

---

target: thromboxane synthetase (Homo sapiens, UniProt P24557)
Construct: Indomethacin-pretreated human platelet microsomes; from tissue; host or cells: human platelet microsomes
Sequence (P24557 1-533): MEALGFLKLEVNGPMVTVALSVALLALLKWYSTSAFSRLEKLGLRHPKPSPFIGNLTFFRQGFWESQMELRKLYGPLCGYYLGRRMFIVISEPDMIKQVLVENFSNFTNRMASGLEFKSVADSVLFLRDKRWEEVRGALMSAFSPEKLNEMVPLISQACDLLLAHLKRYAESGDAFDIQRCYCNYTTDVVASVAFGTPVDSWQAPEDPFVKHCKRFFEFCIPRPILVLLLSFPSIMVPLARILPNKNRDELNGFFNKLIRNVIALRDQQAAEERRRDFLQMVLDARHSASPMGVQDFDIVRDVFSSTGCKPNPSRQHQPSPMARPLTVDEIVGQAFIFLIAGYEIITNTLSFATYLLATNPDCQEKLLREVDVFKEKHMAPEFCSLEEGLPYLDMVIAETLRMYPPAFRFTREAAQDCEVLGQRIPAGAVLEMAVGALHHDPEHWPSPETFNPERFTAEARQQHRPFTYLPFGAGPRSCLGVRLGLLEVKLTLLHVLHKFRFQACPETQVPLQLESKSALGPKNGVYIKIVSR
assay comment: Thromboxane A2 (TxA2) synthetase in vitro enzyme assay
Format: biochemical
test parameters: prostacyclin synthetase / thromboxane synthetase 50% inhibition concentrations
readout: Ratio of (3) to (1)

[
  {
    "cpd smiles": "CC(C)c1[nH]c2ccccc2c1Cn1ccnc1",
    "observed measurement": "> 6,000"
  },
  {
    "cpd smiles": "c1ccc2c(Cn3ccnc3)c(C3CC3)[nH]c2c1",
    "observed measurement": "8,400"
  },
  {
    "cpd smiles": "COc1ccc(C(=O)n2cc(Cn3ccnc3)c3ccccc32)cc1",
    "observed measurement": "> 60,000"
  }
]

// switching to the query molecule
Exam item: For Cc1ccccc1-c1[nH]c2ccccc2c1Cn1ccnc1 , what is its reported Ratio of (3) to (1)?
Marked response: 10^6

Cited source for all entries: patent US4217357A
